Experiment: chemical genetic growth profiling, strain panel (AID 1159580);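 further: tested at 20 µM; growth read once vehicle control cultures reached saturation at 30 °C; 1 = growth at the plate median or of vehicle wells; lower values mean less growth of the strain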
Settings: S. cerevisiae deletion strains, growth OD, locus YDR392W, strain spt3, hits give low values
Screen size: about 5,500 compounds; about 2,000 (36%) were called active. About 18% were inconclusive and are not listed. This is one part of the list.
Rule: normalized growth below 1 gives criterion met, anything at or above gives criterion not met.

{"COMPOUND": "CC(=O)OCC(=O)[C@@]1(O)CCC2C3C[C@H](C)C4=CC(=O)C=CC4(C)C3[C@@H](O)CC21C (stereo not given in full)", "ASSIGNED CLASS": "criterion not met"}
{"COMPOUND": "C=CCSSSCC=C", "ASSIGNED CLASS": "criterion met"}

Lab log: compare recorded normalized growth with 1; is it strictly lower for O=C(Oc1cccc2cccnc12)c1ccccc1 ?
criterion met

Lab log: compare recorded normalized growth with 1; is it strictly lower for CC1=CC(=O)C(C(C)C)=CC1=O ?
criterion met

====

Assay: chemical genetic growth profiling, strain panel (AID 1159580);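 further: tested at 20 µM; growth read once vehicle control cultures reached saturation at 30 °C; 1 = growth at the plate median or of vehicle wells; lower values mean less growth of the strain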
Details: S. cerevisiae deletion strains, growth OD, locus YDR101C, strain arx1, hits give low values
Hit rate of the full screen: of about 5,500 compounds, about 2,000 (36%) were called active. Inconclusive results (about 18%) are left out. This is one part of the list.
PROPERTY NAME: normalized growth

Answered examples (3):
{"MOLECULE": "Cc1c(OCC(F)(F)F)ccnc1CS(=O)c1nc2ccccc2[nH]1 (stereo not given)", "normalized growth": "0.985 (inactive)"}
{"MOLECULE": "COc1cc(C)c2c(=O)c3c(O)cc(O)cc3oc2c1", "normalized growth": "0.943 (inactive)"}
{"MOLECULE": "COc1cc(O)c2c(=O)cc(-c3ccc(OC)c(-c4c(O)cc(O)c5c(=O)cc(-c6ccc(O)cc6)oc45)c3)oc2c1", "normalized growth": "0.997 (inactive)"}

Okay, here is my list. What is normalized growth for each of these?
1. C[C@]12CCC(=O)C=C1CCc1ccc(O)cc12
2. C[C@H]1[C@H](C)CC[C@]2(C(=O)O)CC[C@]3(C)C(=CCC4[C@@]5(C)C[C@@H](O)[C@H](O)[C@@](C)(CO)C5[C@H](O)C[C@]43C)[C@H]12 (stereo not given in full)

["0.984 (inactive)", "0.967 (inactive)"]

====

Test: chemical genetic growth profiling, strain panel (AID 1159580);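 further: tested at 20 µM; growth read once vehicle control cultures reached saturation at 30 °C; 1 = growth at the plate median or of vehicle wells; lower values mean less growth of the strain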
Details: S. cerevisiae deletion strains, growth OD, locus YGR252W, strain gcn5, hits give low values
In all, about 5,500 compounds went through this assay and about 2,000 (36%) were called active. Not shown: some 18% with an inconclusive outcome. The list shows a part of the results.
PROPERTY NAME: normalized growth
Answers are plain numbers.

Answered examples (4):
{"MOLECULE": "NC(=O)c1ccc([N+](=O)[O-])cc1Cl", "normalized growth": 1}
{"MOLECULE": "O=C(O)c1ccccc1O", "normalized growth": 1.01}
{"MOLECULE": "CC[C@@]1(O)C(=O)OCc2c1cc1n(c2=O)Cc2cc3cc(O)ccc3nc2-1", "normalized growth": 0.972}
{"MOLECULE": "C[C@@H](CO)NC(=O)C1C=C2c3cccc4[nH]cc(c34)C[C@H]2N(C)C1 (stereo not given in full)", "normalized growth": 0.977}

Lab note: next molecule to report on.
Report normalized growth, nothing else, for this molecule: CCOC(=O)C1=C(O)C(=O)N(Cc2ccccc2)C1
1.02
